ASSAYED_SYSTEM: Sodium- and chloride-dependent GABA transporter 1 (Homo sapiens, UniProt P30531)
Sequence (P30531 whole entry): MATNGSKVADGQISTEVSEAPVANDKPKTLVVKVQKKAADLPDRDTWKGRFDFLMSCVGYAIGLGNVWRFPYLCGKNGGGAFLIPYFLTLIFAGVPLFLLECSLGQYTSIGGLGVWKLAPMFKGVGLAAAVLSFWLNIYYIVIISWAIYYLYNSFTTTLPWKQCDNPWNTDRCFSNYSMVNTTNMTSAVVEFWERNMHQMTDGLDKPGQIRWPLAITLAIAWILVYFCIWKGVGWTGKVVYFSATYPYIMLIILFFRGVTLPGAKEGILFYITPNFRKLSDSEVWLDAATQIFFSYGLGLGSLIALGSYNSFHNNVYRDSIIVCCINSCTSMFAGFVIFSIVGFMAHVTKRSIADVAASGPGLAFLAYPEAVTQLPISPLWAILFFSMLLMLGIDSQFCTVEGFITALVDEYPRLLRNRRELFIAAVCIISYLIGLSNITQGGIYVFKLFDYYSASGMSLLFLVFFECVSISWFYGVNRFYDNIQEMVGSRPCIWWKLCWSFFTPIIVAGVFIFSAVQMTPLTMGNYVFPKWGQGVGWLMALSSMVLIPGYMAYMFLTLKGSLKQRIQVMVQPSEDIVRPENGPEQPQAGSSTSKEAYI
ASSAY_SUMMARY: Displacement of [3H]Tiagabine from human recombinant GAT1 expressed in HEK293 cells by equilibrium binding assay
pKi: −log10 of the molar value.
MEASURED_METRIC: pKi

COMPOUND	pKi
O=C(O)C1(F)CCCN(CCC=C(c2ccccc2)c2ccccc2)C1 (stereo unspecified)	6.08
COc1ccccc1/C(=C/CCN1CCC[C@@H](C(=O)O)C1)c1ccccc1	6.43

(1) Cc1cc(F)ccc1/C(=C\CCN1CCC[C@@H](C(=O)O)C1)c1ccccc1F
(2) O=C(O)[C@@H]1CCCN(CCC=C(c2ccccc2F)c2ccccc2F)C1
(3) O=C(O)[C@@H]1CCCN(CC/C=C(\c2ccccc2)c2ccccc2Cl)C1
Number of compounds to sort: 3. Sort criterion: pKi, ascending. Answer format: the labels, ordered as requested. 3, 2, 1
(3: 6.78, 2: 7.33, 1: 7.72)

(I) COc1ccccc1/C(=C\CCN1CCC[C@@H](C(=O)O)C1)c1ccccc1F
(II) O=C(O)[C@@H]1CCCN(CC/C=C(/c2ccccc2)c2ccccc2-c2ccccc2)C1
Compare I and II by numeric pKi and name the larger one. # reply format: chosen label I
(I: 7.27, II: 5.97)

###

ASSAYED_SYSTEM: Sodium- and chloride-dependent GABA transporter 1 (Homo sapiens, UniProt P30531)
ASSAY_SUMMARY: Displacement of [3H]Tiagabine from human recombinant GAT1 expressed in HEK293 cells by equilibrium binding assay
MEASURED_METRIC: Ki (nM)

CPD_SMILES	Ki [nM]
O=C(O)[C@@H]1CCCN(CC/C=C(/c2ccccc2)c2ccccc2F)C1	69.2

(I) COc1ccccc1/C(=C\CCN1CCC[C@@H](C(=O)O)C1)c1ccccc1
(II) CCc1ccccc1/C(=C\CCN1CCC[C@@H](C(=O)O)C1)c1ccccc1F
Compare I and II by numeric Ki and name the larger one. # reply format: chosen label I
